These entries and their values trace back to ChEMBL document CHEMBL1806473.

# Test system: LOX IMVI
# METHOD NOTES: Cytotoxicity against human LOXIMVI cells
# Format: cell-based
MEASURED PARAMETER: LC50 (µM)
Record the value in µM, omitting the unit from your answer.

// O=C(/C=C/c1cn(C(/C=C/c2ccccc2)Cc2ccccc2)nn1)NO (centres undefined) : LC50 value = 4.62

// O=C(/C=C/c1ccc(CN(CCO)CCc2c[nH]c3ccccc23)cc1)NO [DACINOSTAT] : LC50 value = 6.04

// CC(C)C(/C=C/c1ccccc1)n1cc(/C=C/C(=O)NO)nn1 (centres undefined) : LC50 value = 5.47

// CC(/C=C/c1ccccc1)n1cc(/C=C/C(=O)NO)nn1 (centres undefined) : LC50 value = 4.12
